Listed below: melting point values for each entry.

Item under review: CCn1nc(C)c(Br)c1C(=O)O . Reported melting point?
158 to 162 °C

---

// melting point lookup, one value per entry

* C1=NCC(c2ccc(C3CN=CC=N3)cc2)N=C1 (configuration not stated) | 262 °C
* COC(=O)c1ccc(OC)c(S(=O)(=O)Cl)c1 | 126 to 128 °C
* CCCCC(O)C(=O)O (configuration not stated) | 61 °C
* CC(O)(P(=O)(O)O)P(=O)(O)O | 199 °C
* CCCCNCCO | -2 °C

// query melting point value for entry Cc1ccc2c(O)c(-c3ccccc3)c(=O)[nH]c2c1
300 °C

Item CC(C)(C)c1ccc(CCOc2ncnc3ccccc23)cc1 has what recorded melting point?
80.5 °C
